// provenance: the supplement of paper PMC10307832

System: NCI-H727
test.details: relative viability (nuclei count vs DMSO), 5 days (fraction); higher = more cells survive
conditions: first compound 0.002 µM
metric.name: relative viability

{"columns": ["molecule", "assayed.target", "meas.value"],
 "data": [
  ["CCNC(=O)c1noc(-c2cc(C(C)C)c(O)cc2O)c1-c1ccc(CN2CCOCC2)cc1 [Luminespib] + COc1cccc2cc(-c3nc([C@H]4CC[C@H](C(=O)O)CC4)n4ncnc(N)c34)[nH]c12 [OSI-027] (partner 0.5 µM)", "NCI-H727", 0.72],
  ["CCNC(=O)c1noc(-c2cc(C(C)C)c(O)cc2O)c1-c1ccc(CN2CCOCC2)cc1 [Luminespib] + CS(=O)(=O)N1CCN(Cc2cc3nc(-c4cccc5[nH]ncc45)nc(N4CCOCC4)c3s2)CC1 [Pictilisib] (partner 1 µM)", "NCI-H727", 0.427],
  ["CCNC(=O)c1noc(-c2cc(C(C)C)c(O)cc2O)c1-c1ccc(CN2CCOCC2)cc1 [Luminespib] + NC(=O)Nc1cc(-c2cccc(F)c2)sc1C(=O)N[C@H]1CCCNC1 [AZD7762] (partner 0.2 µM)", "NCI-H727", 0.53],
  ["CCNC(=O)c1noc(-c2cc(C(C)C)c(O)cc2O)c1-c1ccc(CN2CCOCC2)cc1 [Luminespib] + COc1cc2c(Oc3ccc(NC(=O)C4(C(=O)Nc5ccc(F)cc5)CC4)cc3F)ccnc2cc1OCCCN1CCOCC1 [Foretinib] (partner 0.25 µM)", "NCI-H727", 1.04]
]}

###

System: ChaGo-K-1
test.details: relative viability (nuclei count vs DMSO), 5 days (fraction); higher = more cells survive
conditions: first compound 2.53 µM
Exam item: assign t to entries whose relative viability is below 1 and f to entries at or above 1. Note that a value of exactly 1 receives f.

{"columns": ["molecule", "assigned.category"],
 "data": [
  ["Nc1cccc2c1CN(C1CCC(=O)NC1=O)C2=O (stereo not given) [Lenalidomide] + CC1(C)CCC(c2ccc(Cl)cc2)=C(CN2CCN(c3ccc(C(=O)NS(=O)(=O)c4ccc(N[C@H](CCN5CCOCC5)CSc5ccccc5)c(S(=O)(=O)C(F)(F)F)c4)cc3)CC2)C1 [Navitoclax] (partner 0.5 µM)", "f"],
  ["Nc1cccc2c1CN(C1CCC(=O)NC1=O)C2=O (stereo not given) [Lenalidomide] + CCNC(=O)c1noc(-c2cc(C(C)C)c(O)cc2O)c1-c1ccc(CN2CCOCC2)cc1 [Luminespib] (partner 0.01 µM)", "t"],
  ["Nc1cccc2c1CN(C1CCC(=O)NC1=O)C2=O (stereo not given) [Lenalidomide] + COc1cccc2cc(-c3nc([C@H]4CC[C@H](C(=O)O)CC4)n4ncnc(N)c34)[nH]c12 [OSI-027] (partner 0.5 µM)", "t"],
  ["Nc1cccc2c1CN(C1CCC(=O)NC1=O)C2=O (stereo not given) [Lenalidomide] + CS(=O)(=O)N1CCN(Cc2cc3nc(-c4cccc5[nH]ncc45)nc(N4CCOCC4)c3s2)CC1 [Pictilisib] (partner 1 µM)", "t"],
  ["Nc1cccc2c1CN(C1CCC(=O)NC1=O)C2=O (stereo not given) [Lenalidomide] + O=C(c1cc(Cc2n[nH]c(=O)c3ccccc23)ccc1F)N1CCN(C(=O)C2CC2)CC1 [Olaparib] (partner 8 µM)", "t"],
  ["Nc1cccc2c1CN(C1CCC(=O)NC1=O)C2=O (stereo not given) [Lenalidomide] + O=C(CCCCCCC(=O)Nc1ccccc1)NO [Vorinostat] (partner 1 µM)", "t"]
]}

###

Tested on: NCI-H1666
test.details: relative viability (nuclei count vs DMSO), 5 days (fraction); higher = more cells survive
conditions: first compound 0.253 µM

{"columns": ["compound", "assayed.target", "relative viability"],
 "data": [
  ["Nc1cccc2c1CN(C1CCC(=O)NC1=O)C2=O (stereo not given) [Lenalidomide] + CC(=O)Nc1cccc(-n2c(=O)n(C3CC3)c(=O)c3c(Nc4ccc(I)cc4F)n(C)c(=O)c(C)c32)c1 [Trametinib] (partner 0.02 µM)", "NCI-H1666", 0.859],
  ["Nc1cccc2c1CN(C1CCC(=O)NC1=O)C2=O (stereo not given) [Lenalidomide] + Cc1cc(Nc2cc(N3CCN(C)CC3)nc(Sc3ccc(NC(=O)C4CC4)cc3)n2)n[nH]1 [Tozasertib] (partner 0.1 µM)", "NCI-H1666", 0.585],
  ["Nc1cccc2c1CN(C1CCC(=O)NC1=O)C2=O (stereo not given) [Lenalidomide] + O=C(CCCCCCC(=O)Nc1ccccc1)NO [Vorinostat] (partner 1 µM)", "NCI-H1666", 1.05],
  ["Nc1cccc2c1CN(C1CCC(=O)NC1=O)C2=O (stereo not given) [Lenalidomide] + COc1cccc2cc(-c3nc([C@H]4CC[C@H](C(=O)O)CC4)n4ncnc(N)c34)[nH]c12 [OSI-027] (partner 0.5 µM)", "NCI-H1666", 0.822],
  ["Nc1cccc2c1CN(C1CCC(=O)NC1=O)C2=O (stereo not given) [Lenalidomide] + O=C(c1cc(Cc2n[nH]c(=O)c3ccccc23)ccc1F)N1CCN(C(=O)C2CC2)CC1 [Olaparib] (partner 8 µM)", "NCI-H1666", 0.781]
]}

###

Tested on: HCC-44
test.details: relative viability (nuclei count vs DMSO), 5 days (fraction); higher = more cells survive
conditions: first compound 20 µM
Reported relative viability values are given for each entry in this list.
metric.name: relative viability

{"columns": ["compound", "metric.name", "meas.value"],
 "data": [
  ["Cc1csc(=NC2CCCCC2)n1/N=C/c1ccc(O)c(O)c1O [MIM1] + C[C@]1(O)C[C@@H](c2nc(-c3ccc4ccc(-c5ccccc5)nc4c3)c3c(N)nccn32)C1 [Linsitinib] (partner 1 µM)", "relative viability", 0.141],
  ["Cc1csc(=NC2CCCCC2)n1/N=C/c1ccc(O)c(O)c1O [MIM1] + CC(=O)Nc1cccc(-n2c(=O)n(C3CC3)c(=O)c3c(Nc4ccc(I)cc4F)n(C)c(=O)c(C)c32)c1 [Trametinib] (partner 0.02 µM)", "relative viability", 0.304],
  ["Cc1csc(=NC2CCCCC2)n1/N=C/c1ccc(O)c(O)c1O [MIM1] + CS(=O)(=O)N1CCN(Cc2cc3nc(-c4cccc5[nH]ncc45)nc(N4CCOCC4)c3s2)CC1 [Pictilisib] (partner 1 µM)", "relative viability", 0.198],
  ["Cc1csc(=NC2CCCCC2)n1/N=C/c1ccc(O)c(O)c1O [MIM1] + CC(=O)c1c(C)c2cnc(Nc3ccc(N4CCNCC4)cn3)nc2n(C2CCCC2)c1=O [Palbociclib] (partner 0.5 µM)", "relative viability", 0.578],
  ["Cc1csc(=NC2CCCCC2)n1/N=C/c1ccc(O)c(O)c1O [MIM1] + CC(C)C[C@H](NC(=O)[C@H](Cc1ccccc1)NC(=O)c1cnccn1)B(O)O [Bortezomib] (partner 0.002 µM)", "relative viability", 0.141]
]}

###

Test system: NCI-H596
test.details: relative viability (nuclei count vs DMSO), 5 days (fraction); higher = more cells survive
conditions: first compound 0.2 µM

{"columns": ["compound", "assayed.target", "relative viability"],
 "data": [
  ["CCNC(=O)c1noc(-c2cc(C(C)C)c(O)cc2O)c1-c1ccc(CN2CCOCC2)cc1 [Luminespib] + CS(=O)(=O)CCNCc1ccc(-c2ccc3ncnc(Nc4ccc(OCc5cccc(F)c5)c(Cl)c4)c3c2)o1 [Lapatinib] (partner 2 µM)", "NCI-H596", 0.969],
  ["Cc1csc(=NC2CCCCC2)n1/N=C/c1ccc(O)c(O)c1O [MIM1] + CS(=O)(=O)N1CCN(Cc2cc3nc(-c4cccc5[nH]ncc45)nc(N4CCOCC4)c3s2)CC1 [Pictilisib] (partner 1 µM)", "NCI-H596", 0.419],
  ["Cc1csc(=NC2CCCCC2)n1/N=C/c1ccc(O)c(O)c1O [MIM1] + C[C@]1(O)C[C@@H](c2nc(-c3ccc4ccc(-c5ccccc5)nc4c3)c3c(N)nccn32)C1 [Linsitinib] (partner 1 µM)", "NCI-H596", 0.989],
  ["CN1CCN(CCOc2cc(OC3CCOCC3)c3c(Nc4c(Cl)ccc5c4OCO5)ncnc3c2)CC1 [Saracatinib] + COc1cccc2cc(-c3nc([C@H]4CC[C@H](C(=O)O)CC4)n4ncnc(N)c34)[nH]c12 [OSI-027] (partner 0.5 µM)", "NCI-H596", 0.429]
]}

###

Reported relative viability values are given for each entry in this list.
Tested on: LU99A
test.details: relative viability (nuclei count vs DMSO), 5 days (fraction); higher = more cells survive
conditions: first compound 20 µM
metric.name: relative viability

{"columns": ["molecule", "meas.value"],
 "data": [
  ["Cc1csc(=NC2CCCCC2)n1/N=C/c1ccc(O)c(O)c1O [MIM1] + N=C(N)NC(=N)NCCc1ccccc1 [Phenformin] (partner 250 µM)", 0.325],
  ["Cc1csc(=NC2CCCCC2)n1/N=C/c1ccc(O)c(O)c1O [MIM1] + O=C(CCCCCCC(=O)Nc1ccccc1)NO [Vorinostat] (partner 1 µM)", 0.119],
  ["Cc1csc(=NC2CCCCC2)n1/N=C/c1ccc(O)c(O)c1O [MIM1] + NC(=O)Nc1cc(-c2cccc(F)c2)sc1C(=O)N[C@H]1CCCNC1 [AZD7762] (partner 0.2 µM)", 0.0782],
  ["Cc1csc(=NC2CCCCC2)n1/N=C/c1ccc(O)c(O)c1O [MIM1] + CS(=O)(=O)CCNCc1ccc(-c2ccc3ncnc(Nc4ccc(OCc5cccc(F)c5)c(Cl)c4)c3c2)o1 [Lapatinib] (partner 2 µM)", 0.282],
  ["Cc1csc(=NC2CCCCC2)n1/N=C/c1ccc(O)c(O)c1O [MIM1] + CC1(C)CCC(c2ccc(Cl)cc2)=C(CN2CCN(c3ccc(C(=O)NS(=O)(=O)c4ccc(N[C@H](CCN5CCOCC5)CSc5ccccc5)c(S(=O)(=O)C(F)(F)F)c4)cc3)CC2)C1 [Navitoclax] (partner 0.5 µM)", 0.18]
]}
